# Target System: KRAS WT/SOS1 (Homo sapiens)
# Sequence (Q07889 whole entry): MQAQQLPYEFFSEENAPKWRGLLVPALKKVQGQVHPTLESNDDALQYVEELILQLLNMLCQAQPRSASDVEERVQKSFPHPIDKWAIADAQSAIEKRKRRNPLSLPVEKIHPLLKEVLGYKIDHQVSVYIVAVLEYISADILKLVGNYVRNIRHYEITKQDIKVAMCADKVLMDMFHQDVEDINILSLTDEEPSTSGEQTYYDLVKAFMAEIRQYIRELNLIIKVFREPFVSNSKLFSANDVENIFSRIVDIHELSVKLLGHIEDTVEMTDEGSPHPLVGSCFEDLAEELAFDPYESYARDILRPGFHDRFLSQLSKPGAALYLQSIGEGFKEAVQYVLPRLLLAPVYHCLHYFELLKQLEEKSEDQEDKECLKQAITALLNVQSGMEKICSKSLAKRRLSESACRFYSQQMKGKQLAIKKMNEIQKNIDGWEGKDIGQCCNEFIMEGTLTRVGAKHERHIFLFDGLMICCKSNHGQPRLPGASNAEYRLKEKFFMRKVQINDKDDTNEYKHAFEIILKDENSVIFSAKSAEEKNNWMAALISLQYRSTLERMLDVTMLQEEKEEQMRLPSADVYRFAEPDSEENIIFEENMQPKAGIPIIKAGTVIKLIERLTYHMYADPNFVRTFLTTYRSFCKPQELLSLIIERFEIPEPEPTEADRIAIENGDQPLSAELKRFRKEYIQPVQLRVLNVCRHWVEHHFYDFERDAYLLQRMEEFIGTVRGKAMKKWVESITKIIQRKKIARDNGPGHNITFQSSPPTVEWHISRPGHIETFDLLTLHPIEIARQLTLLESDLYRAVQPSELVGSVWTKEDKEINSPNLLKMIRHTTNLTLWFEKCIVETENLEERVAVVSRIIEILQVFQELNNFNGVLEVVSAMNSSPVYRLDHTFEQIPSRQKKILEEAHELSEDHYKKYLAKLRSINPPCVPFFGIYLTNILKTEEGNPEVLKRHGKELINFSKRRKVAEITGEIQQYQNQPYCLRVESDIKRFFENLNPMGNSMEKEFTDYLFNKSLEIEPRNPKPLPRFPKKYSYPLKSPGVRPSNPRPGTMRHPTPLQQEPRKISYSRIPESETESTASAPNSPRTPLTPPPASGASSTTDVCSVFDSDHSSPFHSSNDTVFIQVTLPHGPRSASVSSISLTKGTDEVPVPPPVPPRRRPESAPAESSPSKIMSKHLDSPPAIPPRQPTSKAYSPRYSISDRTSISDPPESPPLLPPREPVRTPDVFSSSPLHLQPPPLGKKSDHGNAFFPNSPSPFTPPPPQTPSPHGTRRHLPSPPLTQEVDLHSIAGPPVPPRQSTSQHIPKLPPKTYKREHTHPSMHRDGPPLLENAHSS
# Assay Info: HTRF KRAS WT/SOS1 PPI kit (Cisbio) screen for SOS1 inhibitors
# Applied Conditions: HTRF KRAS WT/SOS1 PPI assay, 10-point dilution series starting at 10 μM, 60 minutes incubation
Endpoint Name: IC50

Noted for `COc1cc2nncc(N[C@H](C)c3cccc(C(F)F)c3F)c2cc1N1CC2CC(C1)O2` : its IC50 reads < 0.1 µM
